Data origin, for the record: PubChem BioAssay (NCI)

Test system: OVCAR-8 ovarian
EXPERIMENT SUMMARY: NCI-60 one-dose screen, 48 h (100 = growth as untreated, 0 = no growth, -100 = all killed)
RUN PARAMETERS: 10 µM
This is part of a sample that, as a whole, favours compounds with a hit. Of some 83,000 tested, about 20% had one in any assay.
PROPERTY NAME: growth (%)

[
  {
    "COMPOUND": "Cc1cc(C)c(N2C(=O)CC(Sc3ccccc3N)C2=O)c(C)c1 (configuration not stated)",
    "REPORTED RESULT": 91.1
  },
  {
    "COMPOUND": "O=C1c2cccc3cc([N+](=O)[O-])cc(c23)C(=O)N1CCN1CCCC1",
    "REPORTED RESULT": 9.55
  },
  {
    "COMPOUND": "N#C/C(=C/N1C(=O)/C(=C/c2ccc([N+](=O)[O-])cc2)SC1=S)c1nc2ccccc2s1",
    "REPORTED RESULT": 88.4
  },
  {
    "COMPOUND": "COc1ccc(C(C#N)=C2C=CC(=NO)C=C2)cc1",
    "REPORTED RESULT": 80.3
  },
  {
    "COMPOUND": "COc1ccc(N)c2c1C(=O)c1ccccc1C2=O",
    "REPORTED RESULT": 95.7
  },
  {
    "COMPOUND": "Cc1c(-c2ccccc2)[nH]c2ccccc12",
    "REPORTED RESULT": 105
  },
  {
    "COMPOUND": "NCc1c(O)ccc2ccccc12",
    "REPORTED RESULT": 103
  },
  {
    "COMPOUND": "O=S(=O)(c1cc(Cl)ccc1O)c1cc(Cl)ccc1O",
    "REPORTED RESULT": 83.7
  },
  {
    "COMPOUND": "N#CC(=C1C=CC(=NO)C=C1)c1ccccc1",
    "REPORTED RESULT": 2.63
  },
  {
    "COMPOUND": "Cn1ncc2cc3c(Nc4ccc(Cl)cc4)cccc3nc21",
    "REPORTED RESULT": 89.8
  },
  {
    "COMPOUND": "O=c1[nH]cc(/C=N\\Nc2ccccc2)c(=O)[nH]1",
    "REPORTED RESULT": 46.7
  },
  {
    "COMPOUND": "COc1cccc(C(c2cc3c(cc2O)OCO3)N2CCOCC2)c1OC (configuration not stated)",
    "REPORTED RESULT": 99.2
  }
]
